Where do the numbers come from? From patent US12084472B2.

# system under test: human TGR5 (Homo sapiens, UniProt Q8TDU6)
# Construct: expressed in transfected cells; host or cells: HEK293
# measurement description: Cell-based TGR5 assay (cAMP generation, HTRF)
# test conditions: HEK293 cells stably transfected with human TGR5; cAMP by HTRF; 30 minutes at 37° C.; read-out: pEC50 Human TGR5 (converted)
// values below are reported EC50

Below are worked cases with known answers.
compound	system under test	test readout	result
CC(=O)NCCN(CCCSc1ccc(Cl)c(COC2(c3cnccc3-c3ccccc3OC3CC3)CC2)c1)C(=O)[C@@H](O)[C@@H](O)[C@H](O)[C@@H](O)CO	human TGR5 (Homo sapiens, UniProt Q8TDU6)	EC50	0.126 to 1 µM
Cc1cc(COC2(c3cnccc3-c3ccccc3OC3COC3)CC2)c(Cl)cc1CCCCNC(=O)N(C)C[C@H](O)[C@@H](O)[C@H](O)[C@H](O)CO	human TGR5 (Homo sapiens, UniProt Q8TDU6)	EC50	< 0.1 µM
CC(=O)NCCCN(CCCSc1ccc(Cl)c(CNC2(c3cnccc3-c3ccccc3OC3CC3)CC2)c1)C(=O)[C@@H](O)[C@@H](O)[C@H](O)[C@@H](O)CO	human TGR5 (Homo sapiens, UniProt Q8TDU6)	EC50	0.126 to 1 µM
Cc1ccc(Cl)cc1CNC1(c2cnccc2-c2ccccc2OC2CC2)CC1	human TGR5 (Homo sapiens, UniProt Q8TDU6)	EC50	< 0.1 µM

Problem: Please provide the recorded EC50 for O=C1CCO[C@H]([C@@H](O)[C@H](O)[C@H](O)CO)CN1CCCCc1cc(Cl)c(COC2(c3cnccc3-c3ccccc3OC3CC3)CC2)cc1Cl , tested on human TGR5 (Homo sapiens, UniProt Q8TDU6).
Result: < 0.1 µM

Problem: Form entry - test system: human TGR5 (Homo sapiens, UniProt Q8TDU6); read-out: EC50; compound: O=C(NCC1CCN(S(=O)(=O)c2ccc(Cl)c(COC3(c4cnccc4-c4ccccc4OC4CC4)CC3)c2)C1)NC[C@H](O)[C@@H](O)[C@H](O)[C@H](O)CO (stereo partly drawn)
Result: < 0.1 µM

* * *

# system under test: human TGR5 (Homo sapiens, UniProt Q8TDU6)
# Construct: expressed in transfected cells; host or cells: HEK293
# Sequence (Q8TDU6 1-330): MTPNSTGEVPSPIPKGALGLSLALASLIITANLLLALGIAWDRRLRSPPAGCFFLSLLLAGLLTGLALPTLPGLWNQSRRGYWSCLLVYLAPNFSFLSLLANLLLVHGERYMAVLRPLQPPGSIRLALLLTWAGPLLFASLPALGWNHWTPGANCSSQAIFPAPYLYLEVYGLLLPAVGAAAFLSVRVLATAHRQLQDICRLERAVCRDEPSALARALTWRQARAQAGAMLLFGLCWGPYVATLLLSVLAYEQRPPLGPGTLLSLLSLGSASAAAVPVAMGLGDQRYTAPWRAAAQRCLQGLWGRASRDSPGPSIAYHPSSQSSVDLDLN
# measurement description: Cell-based TGR5 assay (cAMP generation, HTRF)
# test conditions: HEK293 cells stably transfected with human TGR5; cAMP by HTRF; 30 minutes at 37° C.; read-out: pEC50 Human TGR5 (converted)
test readout: EC50

The following compounds have reported results that may help.
compound	test readout	result
Clc1ccc(Cl)c(COC2(c3cnccc3-c3ccccc3Cl)CC2)c1	EC50	0.126 to 1 µM
CCN(CCCCN)S(=O)(=O)c1ccc(Cl)c(COC2(c3cnccc3-c3ccccc3OC3CC3)CC2)c1	EC50	< 0.1 µM
Cc1ccc(SCCCCN(CCCS(C)(=O)=O)C(=O)[C@@H](O)[C@@H](O)[C@H](O)[C@@H](O)CO)cc1COC1(c2cnccc2-c2ccccc2OC2CC2)CC1	EC50	0.126 to 1 µM
CN(CCCSc1ccc(Cl)c(CNC2(c3cnccc3-c3ccccc3OC3CC3)CC2)c1)C(=O)[C@@H](O)[C@@H](O)[C@H](O)[C@@H](O)CO	EC50	< 0.1 µM

Problem: Entry O=C([C@@H](O)[C@@H](O)[C@H](O)[C@@H](O)CO)N(CCCSc1ccc(Cl)c(COC2(c3cnccc3-c3ccccc3OC3CC3)CC2)c1)CCOCCO : reported EC50 = ?
Result: < 0.1 µM

Problem: Item under review: O=C([C@@H](O)[C@@H](O)[C@H](O)[C@@H](O)CO)N(CCO)CCCCc1cc(Cl)c(COC2(c3cnccc3-c3ccccc3OC3CC3)CC2)cc1Cl . Reported EC50?
Result: < 0.1 µM

Problem: Can you look up the measured EC50 of CCc1ccc(SCCCC(=O)N(C)C[C@H](O)[C@@H](O)[C@H](O)[C@H](O)CO)cc1COC1(c2cnccc2-c2ccccc2OC2CC2)CC1 for me?
Result: 0.126 to 1 µM

Problem: For CCNC(=O)[C@@H](CCCCNS(=O)(=O)c1ccc(Cl)c(COC2(c3cnccc3-c3ccccc3OC3CC3)CC2)c1)NC(=O)NC[C@H](O)[C@@H](O)[C@H](O)[C@H](O)CO , what is its reported EC50?
Result: 0.126 to 1 µM

* * *

// EC50 lookup, one value per entry
# system under test: human TGR5 (Homo sapiens, UniProt Q8TDU6)
# Construct: expressed in transfected cells; host or cells: HEK293
# measurement description: Cell-based TGR5 assay (cAMP generation, HTRF)
# test conditions: HEK293 cells stably transfected with human TGR5; cAMP by HTRF; 30 minutes at 37° C.; read-out: pEC50 Human TGR5 (converted)

Here are 3 compounds together with their reported answers.
compound	system under test	result
CC(CCCN(CCS(C)(=O)=O)C(=O)[C@@H](O)[C@@H](O)[C@H](O)[C@@H](O)CO)c1ccc(Cl)c(COC2(c3cnccc3-c3ccccc3OC3CC3)CC2)c1 (stereo partly drawn)	human TGR5 (Homo sapiens, UniProt Q8TDU6)	< 0.1 µM
CNS(=O)(=O)c1ccc(Cl)c(COC2(c3cnccc3-c3ccccc3OC3CC3)CC2)c1	human TGR5 (Homo sapiens, UniProt Q8TDU6)	< 0.1 µM
O=C(CCCCc1cc(Cl)c(COC2(c3cnccc3-c3ccccc3OC3CC3)CC2)cc1Cl)NCCN1CCN(CC(=O)NC[C@H](O)[C@@H](O)[C@H](O)[C@H](O)CO)CC1	human TGR5 (Homo sapiens, UniProt Q8TDU6)	< 0.1 µM

Let us move to another entry and its EC50.
Problem: Consider the compound shown here: CCS(=O)(=O)CCN(CCCC(C)c1ccc(C)c(CNC2(c3cnccc3-c3ccccc3OC3CC3)CC2)c1)C(=O)[C@@H](O)[C@@H](O)[C@H](O)[C@@H](O)CO (stereo partly drawn) What is its recorded EC50?
Result: < 0.1 µM

* * *

# system under test: human TGR5 (Homo sapiens, UniProt Q8TDU6)
# Construct: expressed in transfected cells; host or cells: HEK293
# measurement description: Cell-based TGR5 assay (cAMP generation, HTRF)
# test conditions: HEK293 cells stably transfected with human TGR5; cAMP by HTRF; 30 minutes at 37° C.; read-out: pEC50 Human TGR5 (converted)
Listed next: entries and their corresponding EC50.

Here is how some molecules turned out for EC50.
molecule	result
O=C(NCCCCc1cc(Cl)c(COC2(c3cnccc3-c3ccccc3OC3CC3)CC2)cc1Cl)[C@@H](O)[C@@H](O)[C@H](O)[C@@H](O)CO (stereo in doubt) [Compound I-185]	< 0.1 µM
Fc1ccccc1-c1ccncc1C1(OCc2cc(Cl)ccc2Cl)CC1 [Compound I-50]	1.26 to 10 µM
O=C(O)CCNC(=O)N(CCCCc1cc(Cl)c(COC2(c3cnccc3-c3ccccc3OC3CC3)CC2)cc1Cl)C[C@H](O)[C@@H](O)[C@H](O)[C@H](O)CO [Compound I-198]	< 0.1 µM
CCOc1cc(F)c(F)cc1-c1ccncc1C1(NCc2cc(Cl)ccc2Cl)CC1 [Compound I-15]	0.126 to 1 µM
Oc1cc(Cl)c(CNC2(c3cnccc3-c3ccccc3OC3CC3)CC2)cc1Cl [Compound I-700]	< 0.1 µM

// moving on: another record for EC50
Problem: EC50 for CC(CCCN(CCN1CCS(=O)(=O)CC1)C(=O)[C@@H](O)[C@@H](O)[C@H](O)[C@@H](O)CO)c1ccc(Cl)c(CNC2(c3cnccc3-c3ccccc3OC3CC3)CC2)c1 (stereo partly drawn) [Compound I-298] ?
Result: < 0.1 µM

* * *

# system under test: human TGR5 (Homo sapiens, UniProt Q8TDU6)
# Construct: expressed in transfected cells; host or cells: HEK293
# measurement description: Cell-based TGR5 assay (cAMP generation, HTRF)
# test conditions: HEK293 cells stably transfected with human TGR5; cAMP by HTRF; 30 minutes at 37° C.; read-out: pEC50 Human TGR5 (converted)
test readout: EC50

These solved cases illustrate the format of a correct answer.
smiles structure	result
CC(=O)N(CCCSc1ccc(Cl)c(COC2(c3cnccc3-c3ccccc3OC3CC3)CC2)c1)C[C@H](O)[C@@H](O)[C@H](O)[C@H](O)CO	< 100 nM
O=C(O)CCCCc1cc(Cl)c(CNC2(c3cnccc3-c3ccccc3OC3CC3)CC2)cc1Cl	126 to 1000 nM

Next:
Problem: Quick one: EC50 for COc1ccc2c(n1)CCN(S(=O)(=O)c1ccc(Cl)c(COC3(c4cnccc4-c4ccccc4OC4CC4)CC3)c1)C2 ?
Result: < 100 nM
